Tested on: AKT phosphorylation
Assay: In vitro test of the inhibition effect on AKT phosphorylation (ELISA, Ramos cells)
Type: cell-based
Details: Homo sapiens, Ramos, Ramos cell line, compound 1 hour, goat anti-human IgM 10 ug/ml for 10 minutes, Phospho-AKT 1/2/3 (ser473) ELISA; read-out: Inhibit AKT phosphorylation IC50
Below, each entry is listed with its recorded pIC50.
// pIC50 here means minus log10 of the molar concentration (mol/L)

INSERT INTO assay_data (compound, target_desc, readout_type, result_value) VALUES
  ('Cn1c(=O)c(Nc2ccc(N3CCOCC3)cn2)cc2c(F)c(-c3cc[nH]n3)c(F)cc21 [Example 8]', 'AKT phosphorylation', 'pIC50', 6.73);

// lookup pIC50 for Cn1c(=O)c(Nc2ccc(N3C4CCC3CNC4)cc2)nc2ccc(-c3cn[nH]c3)cc21 [Example 54]
7.16

// lookup pIC50 for Cn1c(=O)c(Nc2ccc(C3(F)COC3)cn2)cc2c(F)c(-c3cc[nH]n3)ccc21 [Example 23]
6.77

// lookup pIC50 for Cn1c(=O)c(Nc2ccc(N3CCOCC3)c(F)c2)nc2ccc(-c3cn[nH]c3)cc21 [Example 48]
6.94
